Where these numbers come from: ChEMBL document CHEMBL1201862

Assignment: determine reported GI50 for the given molecules.
Tested on: Malme-3M
Assay: NCI tumour cell line growth inhibition, 48 h
The source made the active and inactive calls. Cut-off read from the data, not from the text of the source: active = GI50 up to about 1.1 µM and inactive = higher.

In: Return reported GI50; argument: CN(Cc1cnc2nc(N)nc(N)c2n1)c1ccc(C(=O)NC(CCC(=O)NCCC(P(=O)(O)O)P(=O)(O)O)C(=O)O)cc1 (stereo not drawn)
Out: > 35.8 µM (inactive)

In: Return reported GI50; argument: COc1ccccc1N1CCN(CCCN2C(C(=O)c3ccccc3)=C(O)c3c(C)cc(C)nc3S2(=O)=O)CC1
Out: > 100 µM (inactive)

In: Return reported GI50; argument: C/C(=C\c1ccccc1)C(O)C(=O)c1nc2ccc(Cl)cc2nc1O (stereo not drawn)
Out: > 100 µM (inactive)

In: Return reported GI50; argument: COc1cc(/C=N/N=C(\N)NO)cc(OC)c1OC
Out: 22 µM (inactive)

In: Return reported GI50; argument: [N-]=[N+]=NC(c1cn(C2CC(O)C(CO)O2)c(=O)[nH]c1=O)C(Br)I (stereo not drawn)
Out: > 100 µM (inactive)

In: Return reported GI50; argument: CCCCCC[C@H]1C(=O)O[C@H](C)[C@H](NC(=O)c2cccc(NC=O)c2OC)C(=O)O[C@@H](C)[C@@H]1OC(=O)C(C)CC.CCCCCC[C@H]1C(=O)O[C@H](C)[C@H](NC(=O)c2cccc(NC=O)c2OC)C(=O)O[C@@H](C)[C@@H]1OC(=O)CC(C)C (stereo partly drawn)
Out: > 100 µM (inactive)

In: Return reported GI50; argument: Cc1c[n+]2c3ccccc3c3ccccc3c2s1.[O-][Cl+3]([O-])([O-])[O-]
Out: 2.49 µM (inactive)

In: Return reported GI50; argument: C/C(=N\N(C)C)C(CN1CCCCC1)C(c1ccccc1)c1c(O)c2ccccc2oc1=O (stereo not drawn)
Out: > 100 µM (inactive)
